- Target under test: norepinephrine transporter (NET) (Homo sapiens)
- Construct: expressed in transfected cells; host or cells: HEK-293
- Sequence (P23975 whole entry, species assumed): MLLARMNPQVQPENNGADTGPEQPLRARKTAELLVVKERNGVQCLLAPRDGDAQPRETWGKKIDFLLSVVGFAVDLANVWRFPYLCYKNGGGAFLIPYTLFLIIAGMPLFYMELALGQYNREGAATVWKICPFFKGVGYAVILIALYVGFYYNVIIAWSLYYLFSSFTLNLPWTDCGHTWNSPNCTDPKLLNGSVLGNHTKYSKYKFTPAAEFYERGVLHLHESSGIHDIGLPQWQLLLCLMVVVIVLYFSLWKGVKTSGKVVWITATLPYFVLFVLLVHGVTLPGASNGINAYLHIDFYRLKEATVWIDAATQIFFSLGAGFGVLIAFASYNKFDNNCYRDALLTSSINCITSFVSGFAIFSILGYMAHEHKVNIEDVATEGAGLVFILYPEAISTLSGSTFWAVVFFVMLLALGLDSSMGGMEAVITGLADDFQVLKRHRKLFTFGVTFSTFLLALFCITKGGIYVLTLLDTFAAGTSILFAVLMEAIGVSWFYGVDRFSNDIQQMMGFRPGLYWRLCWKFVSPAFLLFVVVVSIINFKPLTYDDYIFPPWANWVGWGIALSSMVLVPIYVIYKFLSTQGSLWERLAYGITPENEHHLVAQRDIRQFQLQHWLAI
- Method: Norepinephrine reuptake inhibition, [3H]-NE, HEK-293 cells transfected with NE transporter cDNA
- Type: cell-based
- Particulars: compound 1 μM; [3H]-NE; relative to control without compound = 100%; lower value = more inhibition
Measured endpoint: Triple reuptake inhibition (Ratio %) NET

Record excerpt, results attached:
O=S(=O)(NCCCN1CCC(CCCc2ccccc2)CC1)c1ccc(-c2ccc(F)cc2)cc1    44.79
CCCCNc1ccc(S(=O)(=O)NCCCN2CCC(Cc3ccccc3)CC2)cc1    53.45

(P) O=S(=O)(NCCCN1CCC(Cc2ccccc2)CC1)c1ccc(-c2ccc(F)cc2)cc1
(Q) O=S(=O)(NCCCN1CCN(Cc2ccccc2)CC1)c1cccc2ccccc12
Consider P and Q . Which of these has its Triple reuptake inhibition (Ratio %) NET at a higher number? Answer by quoting the chosen item's label.
Q
